# Test system: RPMI-8226
# protocolDetails: NCI tumour cell line growth inhibition, 48 h
The source made the active and inactive calls. No stated cut-off is given here; in the data, active = GI50 up to about 1.1 µM and inactive = higher.
Write down one outcome, taken from active, inactive

                                   compound  labelclass
0  COc1cc2ccc1NC(=O)N1CCN(CC1)C(=O)Nc1ccc(cc1OC)-c1ccc(c(OC)c1)NC(=O)N1CCN(CC1)C(=O)Nc1ccc-2cc1OC    inactive
1  O=C1C2=C(C3=NCCc4c[nH]c1c43)c1c(Br)cc(Br)cc1CCN2    inactive
2  CCCCCCc1cc2cc(-c3cn4ccsc4n3)c(=O)oc2cc1O    inactive

Dear all, I need the recorded test outcome for Cc1ccc(Nc2ccc(Nc3ccc(C)cc3S(=O)(=O)O)c3c2C(=O)c2ccccc2C3=O)c(S(=O)(=O)O)c1 , thank you.
inactive

Lab log entry: c1ccc(COC2(OCc3ccccc3)CC3OC2C2NN=NC32)cc1 (stereo unspecified) — outcome as called in the assay?
inactive

Record request — test call for O=C(/C=C/c1cccs1)c1ccc(Cl)s1
inactive

Tell me the recorded outcome of this test for OCCCCOC(c1ccccc1)(c1ccccc1)c1ccccc1 .
inactive
